Source of measurements: ChEMBL document CHEMBL4373651

TARGET OR TEST SYSTEM: Cannabinoid receptor 2 (Homo sapiens)
ASSAY EXPLANATION: Agonist activity at human CB2 receptor expressed in CHO cells coexpressing Galpha16 assessed as reduction in forsklin-induced cAMP production incubated for 30 mins by cAMP Hunter assay based […] analysis
Format: functional, cell-based
SETTINGS: read-out: EC50
ASSAY READOUT: pEC50
pEC50 here: minus log base 10 of the concentration, concentration in moles per litre.

// solved cases for pEC50 follow
MOLECULE SMILES	TARGET OR TEST SYSTEM	ASSAY READOUT	VALUE REPORTED
Cc1c(CCN2CCOCC2)c2cc(Cl)ccc2n1C(=O)c1cccc(Cl)c1Cl	Cannabinoid receptor 2 (Homo sapiens)	pEC50	6.93
Cc1c(CC(=O)NCC2CC2)c2cc(F)ccc2n1CCN1CCOCC1	Cannabinoid receptor 2 (Homo sapiens)	pEC50	5.51
Cc1c(CC(=O)NC2CC2)c2cc(F)ccc2n1CCN1CCOCC1	Cannabinoid receptor 2 (Homo sapiens)	pEC50	5.39
Cc1c(CCN2CCOCC2)c2cc(F)ccc2n1CC(=O)NC1CCCC1	Cannabinoid receptor 2 (Homo sapiens)	pEC50	5.26
COc1ccc2c(c1)c(CCN1CCOCC1)c(C)n2C(=O)N1CCCC1	Cannabinoid receptor 2 (Homo sapiens)	pEC50	4.58
Cc1c(CCN2CCOCC2)c2cc(Br)ccc2n1CC(=O)NC1CC1	Cannabinoid receptor 2 (Homo sapiens)	pEC50	5.09
Cc1c(CCN2CCOCC2)c2cc(Cl)ccc2n1CC(=O)NC1CCCC1	Cannabinoid receptor 2 (Homo sapiens)	pEC50	4.79
Cc1c(CCN2CCOCC2)c2cc(Cl)ccc2n1CC(=O)NCC1CC1	Cannabinoid receptor 2 (Homo sapiens)	pEC50	4.84

Query: In one line, give reported pEC50 of the entry Cc1c(CC(=O)NC2CC2)c2cc(Cl)ccc2n1CCN1CCOCC1 .
Reply: 5.92

Query: Input COc1ccc2c(c1)c(CCN1CCOCC1)c(C)n2CC(=O)NC1CCCCC1 , output reported pEC50.
Reply: 4.94

Query: Look up and report measured pEC50 for this entry: COc1ccc2c(c1)c(CCN1CCOCC1)c(C)n2CC(=O)NC1CCCC1
Reply: 5.25

---

TARGET OR TEST SYSTEM: Cannabinoid receptor 1 (Homo sapiens)
Sequence (P21554 whole entry): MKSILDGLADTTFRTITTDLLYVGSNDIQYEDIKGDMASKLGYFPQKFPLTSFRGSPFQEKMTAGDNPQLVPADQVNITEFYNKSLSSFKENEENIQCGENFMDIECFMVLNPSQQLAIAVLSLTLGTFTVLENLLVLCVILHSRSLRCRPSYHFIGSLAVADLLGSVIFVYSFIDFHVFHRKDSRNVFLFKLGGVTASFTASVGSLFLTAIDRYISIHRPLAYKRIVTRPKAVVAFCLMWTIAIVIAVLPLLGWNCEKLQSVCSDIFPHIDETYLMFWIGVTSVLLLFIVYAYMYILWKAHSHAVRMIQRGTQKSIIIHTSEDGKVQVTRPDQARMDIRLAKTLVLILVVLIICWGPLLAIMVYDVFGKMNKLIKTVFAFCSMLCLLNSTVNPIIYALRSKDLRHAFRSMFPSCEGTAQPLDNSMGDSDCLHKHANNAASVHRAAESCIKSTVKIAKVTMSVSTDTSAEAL
ASSAY EXPLANATION: Agonist activity at human CB1 receptor expressed in CHO cells coexpressing Galpha16 assessed as reduction in forsklin-induced cAMP production incubated for 30 mins by cAMP Hunter assay based […] analysis
Type: cell-based
SETTINGS: read-out: EC50
Form field: EC50 (one value per entry).
Just the number in µM, nothing appended.

// solved cases for EC50 follow
MOLECULE SMILES	VALUE REPORTED
Cc1c(CCN2CCOCC2)c2cc(Cl)ccc2n1C(=O)c1cccc(Cl)c1Cl	79.8
COc1ccc2c(c1)c(CCN1CCOCC1)c(C)n2C(=O)c1cccc(Cl)c1Cl	16.1

Here is another molecule to look at.
Query: Quote EC50 reported for Cc1c(CCN2CCOCC2)c2cc(F)ccc2n1C(=O)c1cccc(Cl)c1Cl please.
Reply: 29.2

---

TARGET OR TEST SYSTEM: Cannabinoid receptor 2 (Homo sapiens)
ASSAY EXPLANATION: Agonist activity at human CB2 receptor expressed in CHO cells coexpressing Galpha16 assessed as reduction in forsklin-induced cAMP production incubated for 30 mins by cAMP Hunter assay based […] analysis
Type: functional, cell-based
SETTINGS: read-out: EC50
Please respond with Fulfilled when measured EC50 is strictly beneath 5 µM, and with Not fulfilled in all other cases.

Here are 4 compounds together with their reported answers.
MOLECULE SMILES	CAT
COc1ccc2c(c1)c(CCN1CCOCC1)c(C)n2CC(=O)N1CCCC1	Not fulfilled
Cc1c(CC(=O)NC2CCCCC2)c2cc(F)ccc2n1CCN1CCOCC1	Not fulfilled
COc1ccc2c(c1)c(CCN1CCOCC1)c(C)n2CC(=O)NCC1CC1	Not fulfilled
COc1ccc2c(c1)c(CC(=O)NC1CCCCC1)c(C)n2CCN1CCOCC1	Not fulfilled

Now for a further compound.
Query: Quick check: does Cc1c(CC(=O)NCC2CC2)c2cc(Cl)ccc2n1CCN1CCOCC1 have EC50 under 5 µM?
Reply: Fulfilled

---

TARGET OR TEST SYSTEM: Cannabinoid receptor 2 (Homo sapiens, UniProt P34972)
Sequence (P34972 whole entry): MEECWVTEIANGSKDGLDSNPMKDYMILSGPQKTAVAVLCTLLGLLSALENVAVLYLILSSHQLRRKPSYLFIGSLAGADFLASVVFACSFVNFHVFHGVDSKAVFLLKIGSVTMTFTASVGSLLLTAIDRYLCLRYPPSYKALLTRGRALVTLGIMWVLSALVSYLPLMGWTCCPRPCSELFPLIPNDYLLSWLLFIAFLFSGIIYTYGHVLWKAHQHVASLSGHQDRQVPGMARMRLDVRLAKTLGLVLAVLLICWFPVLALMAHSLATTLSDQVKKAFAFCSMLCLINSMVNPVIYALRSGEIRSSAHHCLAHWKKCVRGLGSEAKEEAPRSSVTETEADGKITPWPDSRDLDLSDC
ASSAY EXPLANATION: Agonist activity at human CB2 receptor expressed in CHO cells coexpressing Galpha16 assessed as reduction in forsklin-induced cAMP production incubated for 30 mins by cAMP Hunter assay based […] analysis
Assay type: functional, cell-based
SETTINGS: read-out: EC50
# yes (1) = EC50 below 3 µM (exclusive); no (0) = EC50 at/above 3 µM

Reference set (2 entries):
MOLECULE SMILES	TARGET OR TEST SYSTEM	CAT
Cc1c(CCN2CCOCC2)c2cc(Cl)ccc2n1CC(=O)NC1CC1	Cannabinoid receptor 2 (Homo sapiens, UniProt P34972)	no (0)
Cc1c(CCN2CCOCC2)c2cc(F)ccc2n1CC(=O)NC1CC1	Cannabinoid receptor 2 (Homo sapiens, UniProt P34972)	no (0)

Query: Please state whether EC50 is below 3 µM for COc1ccc2c(c1)c(CCN1CCOCC1)c(C)n2CC(=O)NCc1ccc2c(c1)OCO2
Reply: no (0)

Query: Regarding Cc1c(CCN2CCOCC2)c2cc(Br)ccc2n1C(=O)c1cccc(Cl)c1Cl , kindly confirm whether its EC50 is beneath 3 µM.
Reply: yes (1)

Query: Strictly below 3 µM: is that where EC50 of COc1ccc2c(c1)c(CC(=O)N1CCCCC1)c(C)n2CCN1CCOCC1 sits?
Reply: no (0)

Query: Dear colleague, could you confirm whether EC50 of Cc1c(CC(=O)NC2CCCC2)c2cc(Cl)ccc2n1CCN1CCOCC1 falls below 3 µM? Thanks.
Reply: yes (1)

Query: Dear colleague, could you confirm whether EC50 of Cc1c(CC(=O)NC2CCCCC2)c2cc(Cl)ccc2n1CCN1CCOCC1 falls below 3 µM? Thanks.
Reply: no (0)

---

TARGET OR TEST SYSTEM: Cannabinoid receptor 2 (Homo sapiens, UniProt P34972)
ASSAY EXPLANATION: Agonist activity at human CB2 receptor expressed in CHO cells coexpressing Galpha16 assessed as reduction in forsklin-induced cAMP production incubated for 30 mins by cAMP Hunter assay based […] analysis
Type: functional, cell-based
SETTINGS: read-out: EC50
ASSAY READOUT: log10 of EC50 (log10 of the value in µM)
Remember, log10 of EC50, in µM.

For orientation, consider the following solved cases.
MOLECULE SMILES	log10 of EC50
Cc1c(CCN2CCOCC2)c2cc(Br)ccc2n1CC(=O)NC1CCCC1	1.31
Cc1c(CC(=O)NC2CCCC2)c2cc(F)ccc2n1CCN1CCOCC1	-0.32
COc1ccc2c(c1)c(CCN1CCOCC1)c(C)n2CC(=O)N1CCCCC1	1.62
Cc1c(CCN2CCOCC2)c2cc(F)ccc2n1C(=O)c1cccc(Cl)c1Cl	-1.72
Cc1c(CCN2CCOCC2)c2cc(Br)ccc2n1CC(=O)NCC1CC1	0.73
Cc1c(CCN2CCOCC2)c2cc(F)ccc2n1CC(=O)NCC1CC1	0.62

Now consider a different molecule.
Query: Answer with reported log10 of EC50 of COc1ccc2c(c1)c(CCN1CCOCC1)c(C)n2C(=O)c1cccc(Cl)c1Cl
Reply: -1.29
